Reference for the values: patent US8822462B2

measurement-target: NR1/NR2C (Homo sapiens, UniProt Q05586+Q14957)
Construct: expressed in transfected cells; host or cells: Xenopus laevis oocytes
Sequence (Q14957 20-1233, species assumed, other chains not shown): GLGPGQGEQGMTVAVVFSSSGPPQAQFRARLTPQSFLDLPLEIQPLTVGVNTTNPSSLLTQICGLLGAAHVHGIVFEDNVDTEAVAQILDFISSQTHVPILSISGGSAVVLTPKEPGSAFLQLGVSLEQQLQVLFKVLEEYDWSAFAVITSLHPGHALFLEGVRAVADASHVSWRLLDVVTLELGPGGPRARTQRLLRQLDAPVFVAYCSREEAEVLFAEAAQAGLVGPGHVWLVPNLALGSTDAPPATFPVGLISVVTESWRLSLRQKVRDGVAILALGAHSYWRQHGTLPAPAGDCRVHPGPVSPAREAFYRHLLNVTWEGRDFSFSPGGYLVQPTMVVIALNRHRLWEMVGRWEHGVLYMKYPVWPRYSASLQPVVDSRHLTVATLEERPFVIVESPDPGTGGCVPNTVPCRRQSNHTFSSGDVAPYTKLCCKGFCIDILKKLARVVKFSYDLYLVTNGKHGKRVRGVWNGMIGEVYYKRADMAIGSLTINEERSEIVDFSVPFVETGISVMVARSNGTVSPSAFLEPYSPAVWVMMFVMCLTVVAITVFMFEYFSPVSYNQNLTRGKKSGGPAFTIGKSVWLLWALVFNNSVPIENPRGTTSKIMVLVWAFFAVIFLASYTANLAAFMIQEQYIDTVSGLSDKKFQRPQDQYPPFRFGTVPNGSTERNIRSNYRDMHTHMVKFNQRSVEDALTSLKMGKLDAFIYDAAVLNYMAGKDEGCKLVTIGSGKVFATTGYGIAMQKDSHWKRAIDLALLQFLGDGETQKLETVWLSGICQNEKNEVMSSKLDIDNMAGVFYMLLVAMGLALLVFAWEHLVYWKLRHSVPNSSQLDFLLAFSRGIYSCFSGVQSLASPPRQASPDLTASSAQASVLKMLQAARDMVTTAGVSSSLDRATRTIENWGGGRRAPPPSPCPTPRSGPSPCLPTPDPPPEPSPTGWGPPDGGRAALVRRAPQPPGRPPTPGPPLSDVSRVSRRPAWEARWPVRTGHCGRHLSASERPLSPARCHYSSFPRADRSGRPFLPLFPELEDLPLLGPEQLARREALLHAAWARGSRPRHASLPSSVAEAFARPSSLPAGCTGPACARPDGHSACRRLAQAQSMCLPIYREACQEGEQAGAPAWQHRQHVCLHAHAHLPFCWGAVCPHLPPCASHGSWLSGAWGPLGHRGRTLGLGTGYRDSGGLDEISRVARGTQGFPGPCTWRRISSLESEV
test-description: Two electrode voltage clamp, Xenopus laevis oocytes expressing NR1/NR2C
Format: cell-based
test-conditions: at 100 μM; read-out: 2C percent effect at the maximum tested concentration
Friendly reminder: activity at 100 µM below 90% is YES, at or above is NO.

These solved cases illustrate the format of a correct answer.
- molecule: "COC(=O)c1ccc(OCC2c3cc(OC)c(OC)cc3CCN2C(=O)c2cccc(Br)c2)cc1 (stereo not shown)"
  answer-label: "NO"
- molecule: "COc1ccc(OCC2c3cc(OC)c(OC)cc3CCN2C(=O)Nc2ccccc2)cc1 (stereo not shown)"
  answer-label: "YES"
- molecule: "CC(C)(C)c1ccc(NC(=O)C2CC=CCC2C(=O)O)cc1 (stereo not shown)"
  answer-label: "YES"
- molecule: "COc1ccc(OCC2c3cc(OC)c(OC)cc3CCN2C(=O)c2ccccc2Cl)cc1 (stereo not shown)"
  answer-label: "YES"
- molecule: "COc1cc2c(cc1OC)C(COc1ccc(OC(F)(F)F)cc1)N(C(=O)c1cccc(Cl)c1)CC2 (stereo not shown)"
  answer-label: "NO"

Data request: Take the molecule Cc1cc(C(=O)O)c(NC(=O)c2ccccc2)s1 and say whether its activity at 100 µM is less than 90%.
Data returned: NO

Data request: Does this molecule meet the criterion activity at 100 µM < 90%? CC(C)(C)c1ccc(C(=O)Nc2ccccc2C(=O)O)cc1
Data returned: NO
